# target.or.system: binding of His-XIAP(BIR2)-avi fusion protein to GST-RIPK2 fusion protein (RIPK2/XIAP) (Homo sapiens, UniProt O43353)
# Construct: made in house; host or cells: baculovirus infected Sf9 cells
# Sequence (O43353 1-310 limits assumed): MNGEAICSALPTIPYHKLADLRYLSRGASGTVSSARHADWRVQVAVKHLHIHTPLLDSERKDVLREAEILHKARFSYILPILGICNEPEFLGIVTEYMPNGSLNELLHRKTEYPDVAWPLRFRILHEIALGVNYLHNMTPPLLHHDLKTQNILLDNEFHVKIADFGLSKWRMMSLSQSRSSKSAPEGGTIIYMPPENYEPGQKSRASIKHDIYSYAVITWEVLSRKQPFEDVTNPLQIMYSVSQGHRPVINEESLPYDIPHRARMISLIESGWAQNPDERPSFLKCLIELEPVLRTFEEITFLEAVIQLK
# test.name: RIPK2-XIAP binding competition PPI assay (TR-FRET)
# protocol.conditions: RIPK2/XIAP binding competition PPI assay; read-out: PPI IC50 bin
quantity.kind: IC50

Value sought for every listed compound: IC50.
1. COc1cc2ncc(-c3cc(F)c(OC)c(NS(=O)(=O)c4cc(C)ns4)c3)n2cc1S(=O)(=O)C(C)(C)C [Example 289]
2. COc1c(F)cc(-c2cnc3cc(Cl)c(S(=O)(=O)C(C)(C)C)cn23)cc1NS(=O)(=O)c1cnn(C)c1 [Example 263]
3. CC(C)(C)S(=O)(=O)c1cn2c(-c3cc(F)c(N)nc3F)cnc2cc1OCC(O)CO (centres unmarked) [Example 55]
4. CC(C)(C)S(=O)(=O)c1cc2c(-c3cc(Cl)c(N)nc3F)cnn2cc1OCCO [Example 15]
5. CCS(=O)(=O)Nc1cc(-c2cnn3cc(OCCO)c(S(=O)(=O)C(C)(C)C)cc23)cc(F)c1OC [Example 130]
6. COc1cc2ncc(-c3cc(F)c(N)nc3F)n2cc1P1(=O)CCN(C)CC1 [Example 79]

Response:
1. < 1 nM
2. < 1 nM
3. 2.5 to 20 nM
4. 1 to 2.5 nM
5. < 1 nM
6. > 20 nM

Value sought for every listed compound: IC50.
1. CC(C)(N)COc1cc2ncc(-c3cc(Cl)c(N)nc3F)n2cc1S(=O)(=O)C(C)(C)C [Example 241]
2. CC(C)(C)S(=O)(=O)c1cn2c(-c3cc(Cl)c(N)nc3F)cnc2cc1CCCO [Example 257]

Response:
2.5 to 20 nM
2.5 to 20 nM

---

# target.or.system: GST-RIPK2 fusion protein (human RIPK2, amino acids 1-310) (Homo sapiens, UniProt O43353)
# Construct: made in house; host or cells: baculovirus infected Sf9 cells
# test.name: RIPK2 binding competition assay (TR-FRET, Tracer 199 displacement)
# protocol.conditions: 10 nM Tracer 199, 1 nM GST-RIPK2, read-out: RIPK2 IC50
quantity.kind: IC50

Solved entries (count: 4):
Cn1ccc(COc2cc3ncc(-c4cc(F)c(N)nc4F)n3cc2S(=O)(=O)C(C)(C)C)n1 [Example 25] ... 2.5 to 20 nM
CC(C)(CO)COc1cc2ncc(-c3cc(F)c(N)nc3F)n2cc1S(=O)(=O)C(C)(C)C [Example 47] ... 1 to 2.5 nM
Nc1cc(-c2cnc3ccc(C(F)(F)F)cn23)cc(F)n1 [Example 4] ... > 20 nM
COc1cc2ncc(-c3ccc(N)nc3F)n2cc1S(=O)(=O)C(C)(C)CO [Example 58] ... > 20 nM

Value sought for every listed compound: IC50.
1. COc1cc2ncc(-c3cc4cn[nH]c4cn3)n2cc1S(=O)(=O)C(C)(C)C [Example 11]
2. COc1cc2ncc(-c3ccc4nn(C)cc4c3)n2cc1S(=O)(=O)C(C)(C)C [Example 111]
3. COc1cc2ncc(-c3cnn4ncccc34)n2cc1S(=O)(=O)C(C)(C)C [Example 114]

Response:
1. 2.5 to 20 nM
2. > 20 nM
3. > 20 nM

Prompt: Value wanted: IC50 (GST-RIPK2 fusion protein (human RIPK2, amino acids 1-310) (Homo sapiens, UniProt O43353)) of entry C[C@@H](O)CCOc1cc2ncc(-c3cc(F)c(N)nc3F)n2cc1S(=O)(=O)C(C)(C)C [Example 36]
Response: 1 to 2.5 nM
